Biological target: PD-1/PD-L1 binding (Homo sapiens)
Construct: purchased Sino Biological Inc. 10084-H02H-100 (PD-L1-Fc); 10377-H08H-50 (His-PD-1)
Sequence (Q9NZQ7 19-239 limits assumed): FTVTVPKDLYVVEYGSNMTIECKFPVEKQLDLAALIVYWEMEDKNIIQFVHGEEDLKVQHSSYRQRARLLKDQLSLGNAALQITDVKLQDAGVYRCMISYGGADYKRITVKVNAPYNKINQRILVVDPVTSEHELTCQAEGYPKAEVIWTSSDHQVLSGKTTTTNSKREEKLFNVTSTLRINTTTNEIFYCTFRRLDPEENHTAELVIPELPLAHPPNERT
Test: HTRF inhibition of PD-1/PD-L1 binding in vitro
Conditions: His-PD-1 100 nM, PD-L1-Fc 2 nM, read-out: IC50 inhibiting PD-1/PD-L1 binding in vitro
Measurement kind: IC50 (nM)
Please give a number only; it is taken to be in nM.

Would you mind telling me what IC50 value was observed for [2H]C([2H])([2H])n1c(C(=O)Nc2cccc(-c3cccc(NC(=O)c4nc5c(n4C([2H])([2H])[2H])CCN(CCC46CCC(COC)(CC4)C6)C5)c3Cl)c2C)nc2c1CCN(CCC13CCC(C(=O)O)(CC1)C3)C2 ?
3.8

Would you mind telling me what IC50 value was observed for [2H]C([2H])([2H])OCC12CCC(CCN3CCc4c(nc(C(=O)Nc5cccc(-c6cccc(NC(=O)c7nc8c(n7C([2H])([2H])[2H])CCN(CCC79CCC(C(=O)O)(CC7)C9)C8)c6Cl)c5Cl)n4C([2H])([2H])[2H])C3)(CC1)C2 ?
1.02

Would you mind telling me what IC50 value was observed for [2H]C([2H])([2H])n1c(C(=O)Nc2cccc(-c3cccc(NC(=O)c4nc5c(n4C([2H])([2H])[2H])CCN(CCC46CCC(C(=O)O)(CC4)C6)C5)c3Cl)c2C)nc2c1CCN(CCC13CCC(COC)(CC1)C3)C2 ?
3.59

Would you mind telling me what IC50 value was observed for [2H]C([2H])([2H])OCC12CCC(CCN3CCc4c(nc(C(=O)Nc5cccc(-c6cccc(NC(=O)c7nc8c(n7C([2H])([2H])[2H])CCN(CCC79CCC(C(=O)O)(CC7)C9)C8)c6Cl)c5F)n4C([2H])([2H])[2H])C3)(CC1)C2 (single isomer, unassigned) ?
1.38
